# System: Rattus norvegicus
# METHOD_SUMMARY: Plasma concentration after 3 mg/kg peroral dosing in rat at 0.25 hr in rats
# Format: ADME, organism-based
# Design: dose 3 mg/kg, route oral
# COND: in vivo, po
RECORDED_ENDPOINT: Concentration
Quick note: unit goes after the number.

Suppose we examine the compound "O=c1[nH]nc(CN2CCC[C@H](OCc3cc(C(F)(F)F)cc(C(F)(F)F)c3)[C@@H]2c2ccccc2)[nH]1" ; what Concentration value has been reported?
0.029 µg/mL

----------
# System: Rhesus monkey
# METHOD_SUMMARY: Plasma concentration after 3 mg/kg peroral dosing in Rhesus monkey at 1.0 hr
# Format: ADME, organism-based, Macaca mulatta
# Set-up: dose 3 mg/kg, route oral
# COND: in vivo, po
RECORDED_ENDPOINT: Concentration (ng/mL)
One number for each entry, in ng/mL.

Find the recorded Concentration belonging to "O=c1[nH]nc(CN2CCC[C@H](OCc3cc(C(F)(F)F)cc(C(F)(F)F)c3)[C@@H]2c2ccccc2)[nH]1" and report it.
80
